Protocol details: recombinant UMI read abundance after kanamycin selection (control-corrected) (log10(CPM+1)); higher = more efficient recombination; extreme values may be limits of the assay; sequences stand for … in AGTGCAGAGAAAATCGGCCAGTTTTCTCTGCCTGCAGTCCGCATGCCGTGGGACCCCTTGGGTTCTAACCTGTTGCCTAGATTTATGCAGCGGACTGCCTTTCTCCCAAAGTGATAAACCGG…AGGTTGGTTTCACT; site = the 11-nt donor;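 note: IS621 bridge recombinase in Escherichia coli cells against a fixed T5 target plasmid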
Measured recombinant UMI read abundance (log10), listed per entry.
Property label: recombinant UMI read abundance (log10)

1) CGTGGAACATGGACCGGTTTTCCCGGTAATCCGTATTTGTA (site CGTGGAACTCA) :: 0.0215
2) ACCAAGACATGGACCGGTTTTCCCGGTAATCCGTATTTGGG (site ACCGAGACTCC) :: 0.0218
3) TATTTGGCATGGACCGGTTTTCCCGGTAATCCGTATTTGTG (site TATTTGACTCA) :: 0.0103
4) TGTTACCCATGGACCGGTTTTCCCGGTAATCCGTATTTGTA (site TGTTGCCCTTA) :: 0.0124
5) GTAGATTCATGGACCGGTTTTCCCGGTAATCCGTATTTGCA (site GTAGATTCTTG) :: 2.86
6) AGTAAGACATGGACCGGTTTTCCCGGTAATCCGTATTTGAA (site AGGAAGACTTG) :: 0
7) TGTACACCATGGACCGGTTTTCCCGGTAATCCGTATTTGAC (site TATACACCTGT) :: 0
8) TATCATCCATGGACCGGTTTTCCCGGTAATCCGTATTTGGT (site TATCATCCTAC) :: 0.0117
9) GAATTGCCATGGACCGGTTTTCCCGGTAATCCGTATTTGCA (site GAATAGCCTTG) :: 0
10) TCATACTCATGGACCGGTTTTCCCGGTAATCCGTATTTGCA (site TCATCCTCTTG) :: 0.111
11) TGTATCTCATGGACCGGTTTTCCCGGTAATCCGTATTTGGG (site TGTATCTCTCC) :: 0.0516
12) CCCTAGCCATGGACCGGTTTTCCCGGTAATCCGTATTTGCA (site CCCTAGCCTGG) :: 0
13) AACAAGTCATGGACCGGTTTTCCCGGTAATCCGTATTTGAC (site AACAAGTCTGT) :: 1.86
14) AGCTAGGCATGGACCGGTTTTCCCGGTAATCCGTATTTGGT (site CGCTAGGCTAC) :: 0.00222
15) ATCTAAGCATGGACCGGTTTTCCCGGTAATCCGTATTTGAG (site ATCGAAGCTCT) :: 0.367
16) TCCGCCGCATGGACCGGTTTTCCCGGTAATCCGTATTTGCG (site TCCGCCGCTCG) :: 0.0179
17) ACAGTACCATGGACCGGTTTTCCCGGTAATCCGTATTTGCA (site ACAGTAACTTG) :: 0
18) AATAAGACATGGACCGGTTTTCCCGGTAATCCGTATTTGCA (site AGGAAGACTTG) :: 1.4
